tested on: 855422-203-R-J1-PDC complex spheroid viability; test: Anticancer human tumor 855422-203-R-J1-PDC patient-derived bladder carcinoma cell line growth inhibition [POLQ]; settings: second compound 3.16 µM; first compound 1 µM; stronger effect = lower value
Binary label based on viability, T/C with cut-off 8%: below gives label 1, not below gives label 0.

# molecule, answer_label
measured = [
    ("CC1COCCN1c1cc(C2(O)CC3CCC(C2)O3)c2cnn(-c3ccn[nH]3)c2n1 (stereo not given) + Nc1ccc(C#CCN(C(=O)Cc2ncc(C(F)(F)F)cc2C(F)(F)F)c2ccc(F)cc2)nn1", "label 0"),
    ("COc1cccc2c1C(=O)c1c(O)c3c(c(O)c1C2=O)CC(O)(C(=O)CO)CC3OC1CC(N)C(O)C(C)O1 (stereo not given) + Cc1cccc(N(C)C(=O)C2C(O)CCN2c2nc(C)cc(C(F)(F)F)c2C#N)c1", "label 1"),
    ("CCCS(=O)(=O)Nc1ccc(F)c(C(=O)c2c[nH]c3ncc(-c4ccc(Cl)cc4)cc23)c1F + Cc1cccc(N(C)C(=O)C2C(O)CCN2c2nc(C)cc(C(F)(F)F)c2C#N)c1", "label 0"),
    ("CC1COCCN1c1cc(C2(O)CC3CCC(C2)O3)c2cnn(-c3ccn[nH]3)c2n1 (stereo not given) + COC1C(OC(N)=O)C(O)C(Oc2ccc3c(O)c(NC(=O)c4ccc(O)c(CC=C(C)C)c4)c(=O)oc3c2C)OC1(C)C", "label 0"),
]

Does Nc1ccn(C2OC(CO)C(O)C2(F)F)c(=O)n1 (stereo not given) + Nc1ccc(C#CCN(C(=O)Cc2ncc(C(F)(F)F)cc2C(F)(F)F)c2ccc(F)cc2)nn1 have viability, T/C strictly under 8%? label 0

---

tested on: 855422-203-R-J1-PDC complex spheroid viability; experiment: Anticancer human tumor 855422-203-R-J1-PDC cell line growth inhibition [POLQ]; settings: second compound 0.316 µM; first compound 0.316 µM; stronger effect = lower value;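 further: spheroids exposed to compounds for seven days before readout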
experimental_endpoint: viability, T/C (%)
Respond with the bare value in %.

Study these solved cases before continuing.
# molecule, u, viability, T/C
records = [
    ("CCc1cc2c(N3CCc4c(cc(Cn5ccnc5)cc4-c4cn(C)nc4C(F)(F)F)C3=O)cc(C)nc2c(OC)n1 + Nc1ccc(C#CCN(C(=O)Cc2ncc(C(F)(F)F)cc2C(F)(F)F)c2ccc(F)cc2)nn1", "%", 108),
    ("CCc1c2c(nc3ccc(O)cc13)-c1cc3c(c(=O)n1C2)COC(=O)[C@]3(O)CC + Nc1ccc(C#CCN(C(=O)Cc2ncc(C(F)(F)F)cc2C(F)(F)F)c2ccc(F)cc2)nn1", "%", 4.41),
    ("O=C(Nc1ccc(O)c(NS(=O)(=O)c2ccc(F)cc2)c1)c1ccc(-c2ccccc2)cc1 + Cc1cccc(N(C)C(=O)C2C(O)CCN2c2nc(C)cc(C(F)(F)F)c2C#N)c1", "%", 108),
    ("CCc1cc2c(N3CCc4c(cc(Cn5ccnc5)cc4-c4cn(C)nc4C(F)(F)F)C3=O)cc(C)nc2c(OC)n1 + COC1C(OC(N)=O)C(O)C(Oc2ccc3c(O)c(NC(=O)c4ccc(O)c(CC=C(C)C)c4)c(=O)oc3c2C)OC1(C)C", "%", 67.8),
]

Below: the item to evaluate.
Return reported viability, T/C. Input molecule: C#Cc1c(F)ccc2cc(O)cc(-c3ncc4c(N5CC6CCC(C5)N6)nc(OCC56CCCN5CC(F)C6)nc4c3F)c12 (stereo not given) + Cc1cccc(N(C)C(=O)C2C(O)CCN2c2nc(C)cc(C(F)(F)F)c2C#N)c1 99.4

---

tested on: 855422-203-R-J1-PDC complex spheroid viability; assay: Anticancer human tumor 855422-203-R-J1-PDC cell line growth inhibition [POLQ]; settings: second compound 3.16 µM; first compound 0.316 µM; active = viability on the fitted dose curve at most 10% of control; inactive = the rest;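 further: spheroids exposed to compounds for seven days before readout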
Would you mind answering with one of these outcomes? active, inactive

# molecule, answer_label
measured = [
    ("O=C(c1cc(Cc2n[nH]c(=O)c3ccccc23)ccc1F)N1CCN(C(=O)C2CC2)CC1 + Nc1ccc(C#CCN(C(=O)Cc2ncc(C(F)(F)F)cc2C(F)(F)F)c2ccc(F)cc2)nn1", "inactive"),
    ("CC(C)n1c(=O)n(C)c2cnc3cc(F)c(-c4ccc(OCCCN5CCCCC5)nc4)cc3c21 + Nc1ccc(C#CCN(C(=O)Cc2ncc(C(F)(F)F)cc2C(F)(F)F)c2ccc(F)cc2)nn1", "inactive"),
    ("CCc1cc2c(N3CCc4c(cc(Cn5ccnc5)cc4-c4cn(C)nc4C(F)(F)F)C3=O)ccnc2c(OC)n1 + Nc1ccc(C#CCN(C(=O)Cc2ncc(C(F)(F)F)cc2C(F)(F)F)c2ccc(F)cc2)nn1", "inactive"),
]

Answer briefly: the call reported for CC1COCCN1c1cc(-c2ccnn2C)c2ccnc(-c3ccn[nH]3)c2n1 (stereo unspecified) + COC1C(OC(N)=O)C(O)C(Oc2ccc3c(O)c(NC(=O)c4ccc(O)c(CC=C(C)C)c4)c(=O)oc3c2C)OC1(C)C in this assay. inactive

Answer briefly: the call reported for COc1ccc([C@@H](O)c2cc(-c3ncnc4cc(N5CCOCC5)ccc34)c(F)cc2Cl)nn1 + Cc1cccc(N(C)C(=O)C2C(O)CCN2c2nc(C)cc(C(F)(F)F)c2C#N)c1 in this assay. inactive

Answer briefly: the call reported for Nc1ccn(C2OC(CO)C(O)C2(F)F)c(=O)n1 (stereo unspecified) + COC1C(OC(N)=O)C(O)C(Oc2ccc3c(O)c(NC(=O)c4ccc(O)c(CC=C(C)C)c4)c(=O)oc3c2C)OC1(C)C in this assay. active

Answer briefly: the call reported for COc1cc(C2c3cc4c(cc3C(OC3OC5COC(C)OC5C(O)C3O)C3COC(=O)C23)OCO4)cc(OC)c1O (stereo unspecified) + COC1C(OC(N)=O)C(O)C(Oc2ccc3c(O)c(NC(=O)c4ccc(O)c(CC=C(C)C)c4)c(=O)oc3c2C)OC1(C)C in this assay. inactive

Answer briefly: the call reported for COc1cccc2c1C(=O)c1c(O)c3c(c(O)c1C2=O)CC(O)(C(=O)CO)CC3OC1CC(N)C(O)C(C)O1 (stereo unspecified) + Nc1ccc(C#CCN(C(=O)Cc2ncc(C(F)(F)F)cc2C(F)(F)F)c2ccc(F)cc2)nn1 in this assay. active

Answer briefly: the call reported for CCc1c2c(nc3ccc(O)cc13)-c1cc3c(c(=O)n1C2)COC(=O)[C@]3(O)CC + Cc1cccc(N(C)C(=O)C2C(O)CCN2c2nc(C)cc(C(F)(F)F)c2C#N)c1 in this assay. active

Answer briefly: the call reported for Nc1ccn(C2OC(CO)C(O)C2(F)F)c(=O)n1 (stereo unspecified) + Cc1cccc(N(C)C(=O)C2C(O)CCN2c2nc(C)cc(C(F)(F)F)c2C#N)c1 in this assay. inactive

Answer briefly: the call reported for CCc1cc2c(N3CCc4c(cc(Cn5ccnc5)cc4-c4cn(C)nc4C(F)(F)F)C3=O)cc(C)nc2c(OC)n1 + Cc1cccc(N(C)C(=O)C2C(O)CCN2c2nc(C)cc(C(F)(F)F)c2C#N)c1 in this assay. inactive

---

system: 855422-203-R-J1-PDC complex spheroid viability; assay: Anticancer human tumor 855422-203-R-J1-PDC cell line growth inhibition [POLQ]; conditions: second compound 3.16 µM; first compound 0.1 µM; stronger effect = lower value;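 further: spheroids exposed to compounds for seven days before readout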
Listed here are compounds together with their documented viability, T/C.
Respond with the bare value in %.

Return reported viability, T/C. Input compound: CCc1cc2c(N3CCc4c(cc(Cn5ccnc5)cc4-c4cn(C)nc4C(F)(F)F)C3=O)cc(C)nc2c(OC)n1 + Cc1cccc(N(C)C(=O)C2C(O)CCN2c2nc(C)cc(C(F)(F)F)c2C#N)c1 128

Return reported viability, T/C. Input compound: CC1COCCN1c1cc(-c2ccnn2C)c2ccnc(-c3ccn[nH]3)c2n1 (stereo not drawn) + Cc1cccc(N(C)C(=O)C2C(O)CCN2c2nc(C)cc(C(F)(F)F)c2C#N)c1 66.8

Return reported viability, T/C. Input compound: COc1cc(C2c3cc4c(cc3C(OC3OC5COC(C)OC5C(O)C3O)C3COC(=O)C23)OCO4)cc(OC)c1O (stereo not drawn) + Cc1cccc(N(C)C(=O)C2C(O)CCN2c2nc(C)cc(C(F)(F)F)c2C#N)c1 77

---

test system: 855422-203-R-J1-PDC complex spheroid viability; experiment: Anticancer human tumor 855422-203-R-J1-PDC cell line growth inhibition [POLQ]; settings: curve of compound;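 further: spheroids exposed to compounds for seven days before readout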
Listed here are compounds together with their documented IC50.

# item_smiles, IC50
data = [
    ("O=C(c1cc(Cc2n[nH]c(=O)c3ccccc23)ccc1F)N1CCN(C(=O)C2CC2)CC1", "> 10000 nM"),
]

Return reported IC50. Input compound: C=CCn1c(=O)c2cnc(Nc3ccc(N4CCN(C)CC4)cc3)nc2n1-c1cccc(C(C)(C)O)n1 > 1000 nM

Return reported IC50. Input compound: CC(=O)O[C@H]1C(=O)[C@@]2(C)[C@H]([C@H](OC(=O)c3ccccc3)[C@]3(O)C[C@H](OC(=O)[C@H](O)[C@@H](NC(=O)c4ccccc4)c4ccccc4)C(C)=C1C3(C)C)[C@]1(OC(C)=O)CO[C@@H]1C[C@@H]2O < 9.49 nM
